I'd appreciate it if you could supply koff values for the items below.
TARGET_DESC: T1, His-tagged CEACAM1 (human, UniProt P13688 35-428)
T1 construct: 45 kDa SPR analyte; also called CEACAM1-HIS; CEACAM1 analyte
T1 sequence: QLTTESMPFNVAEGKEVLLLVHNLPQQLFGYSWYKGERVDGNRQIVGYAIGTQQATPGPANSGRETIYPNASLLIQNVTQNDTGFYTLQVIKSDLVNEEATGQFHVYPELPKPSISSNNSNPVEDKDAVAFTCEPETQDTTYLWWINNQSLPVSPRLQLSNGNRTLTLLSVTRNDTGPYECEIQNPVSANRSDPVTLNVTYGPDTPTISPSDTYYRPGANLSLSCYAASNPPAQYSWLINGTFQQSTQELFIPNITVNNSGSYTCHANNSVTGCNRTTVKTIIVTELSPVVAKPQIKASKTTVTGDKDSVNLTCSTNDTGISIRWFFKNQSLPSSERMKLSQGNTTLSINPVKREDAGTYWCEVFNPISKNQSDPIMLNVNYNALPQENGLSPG
ASSAY_TEXT: SPR single-cycle, supernatant IgG captured
Answers are plain numbers, in s⁻¹.

CP08G10/Vκ8 S29A (antibody, IgG4, V domains shown, IgG4 (S241P), kappa) VH: EVQLLESGGGLVQPGGSLRLSCAASGFIFSSHGMSWVRQAPGKGLEWVATISSGGTYTYYPDSVKGRFTISRDNSKNTLYLQMNSLKAEDTAMYYCARHDFDYFPAWFAFWGQGTLVTVSS VL: EIVLTQSPATLSLSPGERATLSCRANSAVSYMYWYQQKPGQAPRPWIYLTSNRATGVPARFSGSGSGTDYTLTISSLEPEDFAVYYCQQWSSNPPTFGQGTKLEIK
0.055
VH1/CP08G09 (antibody, IgG4, V domains shown, IgG4 (S241P), kappa; also called Parent VH/CP08G09) VH: EVQLLESGGGLVQPGGSLRLSCAASGFIFSSHGMSWVRQAPGKGLEWVATISSGGTYTYYPDSVKGRFTISRDNSKNTLYLQMNSLKAEDTAMYYCARHDFDYDAAWFAYWGQGTLVTVSS VL: EIVLTQSPATLSLSPGERATLSCRANSAVSYMYWYQQKPGQAPRPWIYLTSNRATGVPARFSGSGSGTDYTLTISSLEPEDFAVYYCQQWTAFPPTFGQGTKLEIK
0.049
VH1/CP08F05 (antibody, IgG4, V domains shown, IgG4 (S241P), kappa; also called Parent VH/CP08F05) VH: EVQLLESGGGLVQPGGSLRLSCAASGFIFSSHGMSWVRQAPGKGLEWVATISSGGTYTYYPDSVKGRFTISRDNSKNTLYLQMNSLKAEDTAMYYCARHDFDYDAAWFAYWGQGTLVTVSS VL: EIVLTQSPATLSLSPGERATLSCRANSAVSYMYWYQQKPGQAPRPWIYLTSNRATGVPARFSGSGSGTDYTLTISSLEPEDFAVYYCQQWTSNPPTFGQGTKLEIK
0.11
CP08C01/Vκ8 S29A (antibody, IgG4, V domains shown, IgG4 (S241P), kappa) VH: EVQLLESGGGLVQPGGSLRLSCAASGYSFSNHGMSWVRQAPGKGLEWVATISSGGTYTYYPDSVKGRFTISRDNSKNTLYLQMNSLKAEDTAMYYCARHDFDYDAAWFAYWGQGTLVTVSS VL: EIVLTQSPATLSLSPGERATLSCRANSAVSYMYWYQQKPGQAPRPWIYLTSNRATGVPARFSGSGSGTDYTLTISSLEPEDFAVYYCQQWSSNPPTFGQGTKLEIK
0.1

Lab note: next binder to report on.
Requested field: koff. Item: VH1/Vκ8 S29A (antibody, IgG4, V domains shown, IgG4 (S241P), kappa; also called Parent; Parent (VH1/Vκ8 S29A)) VH: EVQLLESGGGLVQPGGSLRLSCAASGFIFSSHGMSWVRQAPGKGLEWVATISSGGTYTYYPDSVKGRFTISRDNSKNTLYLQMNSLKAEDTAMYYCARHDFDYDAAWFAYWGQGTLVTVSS VL: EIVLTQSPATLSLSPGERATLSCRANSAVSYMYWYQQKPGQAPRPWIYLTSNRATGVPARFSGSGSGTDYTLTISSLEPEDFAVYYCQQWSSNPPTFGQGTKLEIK 0.057
